System: velvetleaf
Test: Test B pre-/postemergence herbicide test
Assay type: in vivo, Abutilon theophrasti
Conditions: 500 g ai/ha; visual rating, 0 = no effect, 100 = complete control; preemergence
# Plant response rating, Velvetleaf per entry
endpoint-label: Plant response rating, Velvetleaf

smiles-entry: C#CCNC(=O)c1cccc(NC(=O)c2cc(C(C)(C)C)nn2C)n1
endpoint-label: Plant response rating, Velvetleaf
meas-value: 20
//
smiles-entry: CCc1cn(C(C)(C)C)nc1C(=O)Nc1cc(C(=O)N(C)CC)ccn1
endpoint-label: Plant response rating, Velvetleaf
meas-value: 30
//
smiles-entry: CCn1nc(C(C)(C)C)cc1C(=O)Nc1cc(C(=O)N2CCOCC2)ccc1F
endpoint-label: Plant response rating, Velvetleaf
meas-value: 100
//
smiles-entry: C#CCNC(=O)c1cccc(NC(=O)c2sc(C(C)(C)C)nc2CC)n1
endpoint-label: Plant response rating, Velvetleaf
meas-value: 0
//
smiles-entry: C#CCNC(=O)c1ccc(F)c(NC(=O)c2cc(C3(C)CC3)nn2CC)c1
endpoint-label: Plant response rating, Velvetleaf
meas-value: 80

---

# Plant response rating, Morningglory per entry
Test system: morningglory
Assay: Test B pre-/postemergence herbicide test
Type: in vivo, Ipomoea coccinea
Settings: 500 g ai/ha; visual rating 0-100, 0 no effect, 100 complete control; preemergence
endpoint-label: Plant response rating, Morningglory

smiles-entry: CC(=O)c1cccc(NC(=O)c2cn(C(C)C)nc2C)c1
endpoint-label: Plant response rating, Morningglory
meas-value: 0
--
smiles-entry: C=CCN(C)C(=O)c1cccc(NC(=O)c2cc(C(C)(C)C)nn2CC)n1
endpoint-label: Plant response rating, Morningglory
meas-value: 70
--
smiles-entry: CCCc1nn(C(C)(C)C)cc1C(=O)Nc1cccc(C(=O)N(CC)CC)c1
endpoint-label: Plant response rating, Morningglory
meas-value: 50
--
smiles-entry: C#CCNC(=O)c1cccc(NC(=O)c2sc(C(C)(C)C)nc2C)c1
endpoint-label: Plant response rating, Morningglory
meas-value: 10

---

Test system: corn
Test: Test B pre-/postemergence herbicide test
Assay type: in vivo, Zea mays
Details: 125 g ai/ha; 0 is no effect, 100 is complete control; preemergence
# Plant response rating (0 to 100 scale), Corn per entry
endpoint-label: Plant response rating (0 to 100 scale), Corn

molecule: CCNC(=O)c1ccc(F)c(NC(=O)C2CN(C(C)(C)C)N=C2CC)c1 (stereo not drawn) [Compound 336]
meas-value: 50
//
molecule: CCOC(=O)c1ccnc(NC(=O)c2nn(C(C)(C)C)nc2C)c1 [Compound 421]
meas-value: 0
//
molecule: C=CCN(CC=C)C(=O)c1ccc(F)c(NC(=O)c2nn(C(C)(C)C)nc2CC)c1 [Compound 387]
meas-value: 0

---

# Foxtail, Giant plant response rating per entry
Test system: giant foxtail
Assay: Test A pre-/postemergence herbicide test
Assay type: in vivo, Setaria faberi
Conditions: Postemergence, 500 g ai/ha; 0 to 100 scale, 0 no effect, 100 complete control
endpoint-label: Foxtail, Giant plant response rating

smiles-entry: CC(=NO)c1cccc(NC(=O)c2cc(C(C)(C)C)nn2CC(F)(F)F)c1
experimental-system: giant foxtail
meas-value: 20
--
smiles-entry: CC(=NO)c1cccc(NC(=O)c2cc(C(C)(C)C)nn2C)c1
experimental-system: giant foxtail
meas-value: 45
--
smiles-entry: CCn1nc(C(C)(C)C)cc1C(=O)Nc1cccc(C#N)c1
experimental-system: giant foxtail
meas-value: 20
--
smiles-entry: CCn1nc(C(C)(C)C)cc1C(=O)Nc1cccc(OC(F)(F)F)c1
experimental-system: giant foxtail
meas-value: 45
--
smiles-entry: Cc1nc(C(C)(C)C)sc1C(=O)Nc1cccc(C(=O)NCCF)c1
experimental-system: giant foxtail
meas-value: 0
--
smiles-entry: C#CCOC(=O)c1cccc(NC(=O)c2cc(C(C)(C)C)nn2CC)c1
experimental-system: giant foxtail
meas-value: 15
--
smiles-entry: CCNC(=O)c1cc(C)cc(NC(=O)c2cc(C(C)(C)C)nn2CC)n1
experimental-system: giant foxtail
meas-value: 20
--
smiles-entry: C#CCNC(=O)c1cccc(NC(=O)c2sc(C(C)(C)C)nc2C)c1
experimental-system: giant foxtail
meas-value: 10
--
smiles-entry: CCn1nc(C(C)(C)C)cc1C(=O)Nc1cccc(C(=O)OCC2CC2)c1C
experimental-system: giant foxtail
meas-value: 10
